Source listed as patent US20030119727A1.

# measurement-target: T1, recombinant human Factor VIIa (human), P08709
# T1 chain 1: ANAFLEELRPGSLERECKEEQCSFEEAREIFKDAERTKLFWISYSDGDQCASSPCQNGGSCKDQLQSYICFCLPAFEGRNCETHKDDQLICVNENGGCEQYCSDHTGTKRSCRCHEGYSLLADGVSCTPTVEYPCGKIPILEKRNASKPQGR
# T1 chain 2: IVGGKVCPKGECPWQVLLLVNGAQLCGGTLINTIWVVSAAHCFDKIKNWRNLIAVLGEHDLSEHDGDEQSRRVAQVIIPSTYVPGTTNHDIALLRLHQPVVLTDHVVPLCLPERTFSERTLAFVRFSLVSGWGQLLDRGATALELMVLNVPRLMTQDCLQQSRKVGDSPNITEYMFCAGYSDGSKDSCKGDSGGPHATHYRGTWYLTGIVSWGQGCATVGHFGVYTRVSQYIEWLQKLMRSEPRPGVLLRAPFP
# assay-procedure: competition ELISA
# stated-conditions: modification not given
The binders listed here are annotated with their pIC50.
Interpret pIC50 as the negative base-10 log of the concentration measured in mol/L.

Please review the entries below; each comes with its answer.
binder="ALCDDPRVSRWYCQFVEG [TF162]" assay_metric=pIC50 numeric_readout=6.44
binder="LCDDPRIDRWYCMF [TF61]" assay_metric=pIC50 numeric_readout=3.60
binder="ALCDDPRVQRWYCQFVEG [TF161]" assay_metric=pIC50 numeric_readout=5.06
binder="ALCADPRVDRWYCQFVEG [TF107]" assay_metric=pIC50 numeric_readout=8.00
binder="ALCDDPRVDRWYCQLVEG [TF189]" assay_metric=pIC50 numeric_readout=6.36

Q: State its pIC50 for this binder: ALCDDPRVDRWYCQQVEG [TF191]
Ans: 4.69

Q: State its pIC50 for this binder: ALCDDPRVDRWYCQF [TF90]
Ans: 6.77

Q: State its pIC50 for this binder: LCDDPRIDRWYCQF [TF63]
Ans: 4.00

Q: State its pIC50 for this binder: ALCDDPRVDRWYCQYVEG [TF146]
Ans: 6.16

Q: State its pIC50 for this binder: ALCDDPRVDKWYCQFVEG [TF130]
Ans: 7.03
